# assayTarget: HLA-A*69:01
# assayText: IEDB peptide-MHC binding, purified MHC/direct/fluorescence; filed as Kd, often an IC50 or EC50 that approximates it; bounds were set here for any values at or beyond the usual limits of such assays
# measurementParameters: source organism: Influenza A virus (A/Viet Nam/HN/2004(H5N1))
pKd: −log10 of the molar value.
measurementName: pKd

Prompt: # get_value(readout='pKd', item= RRVRDNMTK )
Response: ≤ 4.70

###

# assayTarget: HLA-B*83:01
# assayText: IEDB peptide-MHC binding, purified MHC/competitive/fluorescence; filed as Kd, often an IC50 or EC50 that approximates it; bounds were set here for any values at or beyond the usual limits of such assays
# measurementParameters: source organism: Giardia lamblia ATCC 50803
measurementName: Kd (nM)
Unit nM implied. Number only.

Prompt: Lookup: Kd / HLA-B*83:01 / YPFHIFYPV
Response: 136

###

Could you please report measured Kd for the items listed next?
# assayTarget: HLA-A*68:02
# assayText: IEDB peptide-MHC binding, purified MHC/competitive/radioactivity; filed as Kd, often an IC50 or EC50 that approximates it; bounds were set here for any values at or beyond the usual limits of such assays
# measurementParameters: source organism: Dengue virus 2 Jamaica/1409/1983
Response body: numeric value in nM, unit text excluded.

Prompt: # query: Kd of entry FSPGTSGSPI
Response: 294

Prompt: Quick one: Kd of TTIAVSMANI ?
Response: 3.87

Prompt: Field request: Kd | item: ETILELTDAL
Response: 134

Prompt: What value of measured Kd is listed for ESHNQTFLI ?
Response: 3.51

###

# assayTarget: HLA-B*08:01
# assayText: IEDB peptide-MHC binding, purified MHC/competitive/fluorescence; filed as Kd, often an IC50 or EC50 that approximates it; bounds were set here for any values at or beyond the usual limits of such assays
# measurementParameters: source organism: Shigella flexneri 5 str. 8401
measurementName: Kd

Prompt: // Kd lookup, key: FGALFMWLL
Response: ≥ 5 µM

###

# assayTarget: HLA-A*26:01
# assayText: IEDB peptide-MHC binding, purified MHC/competitive/fluorescence; filed as Kd, often an IC50 or EC50 that approximates it; bounds were set here for any values at or beyond the usual limits of such assays
# measurementParameters: source organism: Actinobacillus pleuropneumoniae serovar 1 str. 4074
measurementName: pKd
On this scale, pKd is minus log10 of a concentration expressed in M (mol/L).

Prompt: API: value(readout=pKd, system=HLA-A*26:01) for record DLYRMYSRY
Response: 6.52

###

# assayTarget: HLA-A*69:01
# assayText: IEDB peptide-MHC binding, purified MHC/direct/fluorescence; filed as Kd, often an IC50 or EC50 that approximates it; bounds were set here for any values at or beyond the usual limits of such assays
# measurementParameters: source organism: Yellow fever virus
pKd: −log10 of the molar value.
measurementName: pKd

Prompt: Write down the reported pKd of PHAATIRVL , test system: HLA-A*69:01.
Response: ≤ 4.70

###

# assayTarget: HLA-B*53:01
# assayText: IEDB peptide-MHC binding, purified MHC/competitive/fluorescence; filed as Kd, often an IC50 or EC50 that approximates it; bounds were set here for any values at or beyond the usual limits of such assays
# measurementParameters: source organism: Vibrio cholerae 2740-80
pKd: −log10 of the molar value.
measurementName: pKd

Prompt: Fill in: pKd of MGMEQTMSV is ___
Response: ≤ 5.30

###

# assayTarget: HLA-A*02:01
# assayText: IEDB peptide-MHC binding, purified MHC/competitive/radioactivity; filed as Kd, often an IC50 or EC50 that approximates it; bounds were set here for any values at or beyond the usual limits of such assays
# measurementParameters: source organism: Vaccinia virus WR
measurementName: pKd
// field semantics: pKd = negative decimal log of concentration (mol/L)

Prompt: Entry FLNISWFYI : reported pKd = ?
Response: 10.85

###

Exercise: state measured Kd for each of the sequences provided.
# assayTarget: HLA-A*11:01
# assayText: IEDB peptide-MHC binding, purified MHC/competitive/radioactivity; filed as Kd, often an IC50 or EC50 that approximates it; bounds were set here for any values at or beyond the usual limits of such assays
# measurementParameters: source organism: SARS coronavirus Tor2
Respond with the bare value in nM.

Prompt: Any idea what its Kd is? The sequence is TVAYFNMVY
Response: 60.5

Prompt: For VLHDIGNPK , what is its reported Kd?
Response: 34.3

Prompt: What value of Kd has been recorded for this entry: CLFDRYFKY
Response: 0.59

Prompt: If you can, please state the reported Kd value of AVIIRGHLR .
Response: 2240

Prompt: Which Kd is listed for NLCTHSFRK ?
Response: 7900

Prompt: Endpoint output: Kd of GVIRSIFAR . Value?
Response: 0.618

Prompt: Param item = DTVWEVQGYK ; retrieve measured Kd.
Response: 74.6

Prompt: Fill in the blank: the reported Kd of TTTIKPVSYK is ____.
Response: 20.4

Prompt: Item NATFFIFNK has what recorded Kd?
Response: 87.3

Prompt: # input sequence: AQALNTLVK ; wanted: its Kd
Response: 15.9

Prompt: Any idea what Kd was measured for WFSQRGGSYK ?
Response: 152

###

# assayTarget: HLA-B*46:01
# assayText: IEDB peptide-MHC binding, purified MHC/direct/fluorescence; filed as Kd, often an IC50 or EC50 that approximates it; bounds were set here for any values at or beyond the usual limits of such assays
# measurementParameters: source organism: Escherichia coli O157:H7
measurementName: pKd
A value of pKd is the negative decimal logarithm of a concentration given in moles per litre.

Prompt: Suppose we examine the sequence FIVEHINAM ; what pKd value has been reported?
Response: 6.63

###

# assayTarget: HLA-A*11:01
# assayText: IEDB peptide-MHC binding, purified MHC/competitive/fluorescence; filed as Kd, often an IC50 or EC50 that approximates it; bounds were set here for any values at or beyond the usual limits of such assays
# measurementParameters: source organism: Vibrio vulnificus CMCP6
measurementName: pKd
pKd field: float, defined as -log10 of concentration (mol/L).

Prompt: Requested field: pKd. Item: VTFFCVMTY
Response: 6.65

###

# assayTarget: HLA-A*26:02
# assayText: IEDB peptide-MHC binding, purified MHC/direct/fluorescence; filed as Kd, often an IC50 or EC50 that approximates it; bounds were set here for any values at or beyond the usual limits of such assays
# measurementParameters: source organism: Vibrio vulnificus CMCP6
measurementName: Kd (nM)
Dear colleague, please return just the value in nM, with no unit written.

Prompt: Please look up its Kd: VTFFCVMTY
Response: 1780

###

# assayTarget: HLA-B*27:05
# assayText: IEDB peptide-MHC binding, purified MHC/competitive/fluorescence; filed as Kd, often an IC50 or EC50 that approximates it; bounds were set here for any values at or beyond the usual limits of such assays
# measurementParameters: source organism: Shigella flexneri 5 str. 8401
pKd: −log10 of the molar value.
measurementName: pKd

Prompt: // fetch HLA-B*27:05 pKd for FGALFMWLL
Response: ≤ 5.30

###

# assayTarget: HLA-C*06:02
# assayText: IEDB peptide-MHC binding, purified MHC/direct/fluorescence; filed as Kd, often an IC50 or EC50 that approximates it; bounds were set here for any values at or beyond the usual limits of such assays
# measurementParameters: source organism: Listeria monocytogenes serotype 1/2a str. F6854
pKd: −log10 of the molar value.
measurementName: pKd

Prompt: Can you share its pKd? I mean this sequence: KMIGNLLSF
Response: ≤ 4.70

###

# assayTarget: HLA-A*02:19
# assayText: IEDB peptide-MHC binding, purified MHC/direct/fluorescence; filed as Kd, often an IC50 or EC50 that approximates it; bounds were set here for any values at or beyond the usual limits of such assays
# measurementParameters: source organism: Pergamino virus
measurementName: Kd

Prompt: So what's the measured Kd for this one? SCINGQCPY
Response: ≥ 20 µM

###

For each record, write down the corresponding pKd.
# assayTarget: HLA-B*44:02
# assayText: IEDB peptide-MHC binding, purified MHC/competitive/radioactivity; filed as Kd, often an IC50 or EC50 that approximates it; bounds were set here for any values at or beyond the usual limits of such assays
# measurementParameters: source organism: Dengue virus 2 Jamaica/1409/1983
Reminder that pKd means the negative base-10 logarithm of the concentration expressed in mol/L.

Prompt: Endpoint output: pKd of KELKCGSGI . Value?
Response: 6.17

Prompt: Quick one: pKd for LETLLLLTL ?
Response: 6.22

Prompt: Tell me the measured pKd of REDQWCGSLI , please.
Response: 6.43

###

# assayTarget: HLA-B*15:17
# assayText: IEDB peptide-MHC binding, purified MHC/competitive/fluorescence; filed as Kd, often an IC50 or EC50 that approximates it; bounds were set here for any values at or beyond the usual limits of such assays
# measurementParameters: source organism: Variola virus
pKd: −log10 of the molar value.
measurementName: pKd

Prompt: Entry under review: SQIETGTPF . Reported pKd?
Response: ≤ 4.70
